Assay: P-glycoprotein substrates identified in KB-8-5-11 adenocarcinoma cell line, qHTS therapeutic library screen (AID 1346987); also: nearly all actives have a fitted effect of over 65% in size; also: potency is read from the fitted curve at half-maximal effect
Conditions: KB-8-5-11 (P-gp overexpressing) viability, CellTiter-Glo, 72 h; series mostly up to 44.5 µM
Inconclusive results are not listed. Activity calls are given as the source filed them. Calls follow the shape of the dose curve; as a rule, active = well fitted inhibition curve with a large enough effect; inconclusive = small, poorly fitted or top-dose-only effect; inactive = flat fitted curve, though single readings scatter.
Property Label: Potency

{"Smiles Code": "C=C1[C@@H](C)[C@H]2[C@H](Cc3ccccc3)NC(=O)[C@]23OC(=O)/C=C/C(=O)CCC[C@@H](C)C/C=C/[C@H]3[C@@H]1O", "Potency": "5.8 µM (active)"}
{"Smiles Code": "c1cncc(OC[C@@H]2CCN2)c1", "Potency": "inactive"}
{"Smiles Code": "COc1ccc(OC)c(C[C@H](C)N)c1", "Potency": "inactive"}
{"Smiles Code": "C#C[C@]1(OC(=O)CCCCCC)CC[C@H]2[C@@H]3CCC4=CC(=O)CC[C@@H]4[C@H]3CC[C@@]21C", "Potency": "20.6 µM (active)"}

Proceeding to the next compound to report its Potency.
Qu. # Potency lookup, item C=C1[C@@H](C)[C@H]2[C@H](Cc3ccccc3)NC(=O)[C@]23[C@H](OC(C)=O)/C=C/[C@](C)(O)C(=O)[C@@H](C)C/C=C/[C@H]3[C@@H]1O
Ans. 9.2 µM (active)

###

Molecular target: Nucleoprotein (Lymphocytic choriomeningitis virus (strain Armstrong)) (UniProt P09992)
Sequence (P09992 whole entry, looked up): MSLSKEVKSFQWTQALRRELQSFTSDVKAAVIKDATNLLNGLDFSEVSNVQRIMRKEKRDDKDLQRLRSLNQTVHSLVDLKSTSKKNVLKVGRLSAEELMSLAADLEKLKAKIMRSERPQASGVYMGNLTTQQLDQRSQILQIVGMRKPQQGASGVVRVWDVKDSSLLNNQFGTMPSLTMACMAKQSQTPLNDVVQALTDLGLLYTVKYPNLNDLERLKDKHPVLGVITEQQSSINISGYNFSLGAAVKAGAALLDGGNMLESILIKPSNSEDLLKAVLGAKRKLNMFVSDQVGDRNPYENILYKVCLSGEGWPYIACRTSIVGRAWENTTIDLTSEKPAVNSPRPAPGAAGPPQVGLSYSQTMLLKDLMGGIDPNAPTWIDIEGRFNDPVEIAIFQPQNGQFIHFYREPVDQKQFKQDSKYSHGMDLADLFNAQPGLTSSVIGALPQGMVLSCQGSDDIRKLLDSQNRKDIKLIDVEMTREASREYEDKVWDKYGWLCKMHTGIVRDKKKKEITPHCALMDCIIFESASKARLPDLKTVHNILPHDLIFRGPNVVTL
Experiment: qHTS for Inhibitors of the Functional Ribonucleoprotein Complex (vRNP) of Lymphocytic Choriomeningitis Arenaviruses (LCMV): LCMV Primary Screen - GLuc reporter signal (AID 1347086); also: nearly all actives have a fitted effect of over 70% in size
Conditions: LCMV minigenome vRNP cell assay, Gaussia luciferase reporter; series mostly up to 57.5 µM
Records with an inconclusive call do not appear. Activity calls are given as the source filed them. The call rests on the fitted dose curve.
Thanks in advance; please answer with one of these: active, inactive

Qu. Called result for COc1c2c(c(OC)c3c1c(=O)c1ccccc1n3C)OCO2
Ans. inactive

Qu. # repeat for Nc1nc(Cl)nc2c1ncn2[C@@H]1O[C@H](CO)[C@@H](O)[C@H]1O
Ans. inactive

Qu. # repeat for CC(N)=NCCCC[C@@H](N)C(=O)O
Ans. inactive

Qu. # repeat for C#C[C@]1(O)CC[C@@H]2[C@@H]3CCc4cc(O)ccc4[C@H]3CC[C@@]21C
Ans. active

Qu. # repeat for O=[N+]([O-])c1cccc2c(Br)[nH]nc12
Ans. inactive

Qu. # repeat for c1ccc(CNc2nc(N3CCOc4ccccc43)nc3c2CCCC3)cc1
Ans. inactive

Qu. # repeat for O=C(O)C1CCNCC1
Ans. inactive

Qu. # repeat for CC12C=CC(=O)C=C1CCC1C2C(=O)CC2(C)C(=O)CCC12 (configuration not stated)
Ans. inactive

Qu. # repeat for CN(C)c1ccc(/C=C2\C(=O)Nc3ccccc32)cc1
Ans. inactive

Qu. # repeat for OC[C@H]1O[C@H](OCc2ccccc2)[C@H](O[C@@H]2OC[C@@H](O)[C@H](O)[C@H]2O)[C@@H](O)[C@@H]1O
Ans. inactive

Qu. # repeat for CC(=O)C(C)=O
Ans. inactive

Qu. # repeat for COc1cc2c(CCNC(C)=O)c[nH]c2cc1O
Ans. inactive

###

Test: Vero-766 cells viability qHTS against the NCATS CANVASS Library: Counterscreen for Zika virus inhibition assay (AID 1347394); also: nearly all actives have a fitted effect of over 60% in size
Settings: Vero 766 viability, CellTiter-Glo luminescence, 72 h; series mostly up to 46.1 µM
Results filed as inconclusive are left out. Active and inactive are the calls of the source. The call rests on the fitted dose curve; in most records, active means well fitted cell-killing curve with a large enough effect; inconclusive means small, poorly fitted or top-dose-only effect; inactive means flat fitted curve, though single readings scatter.
Thanks in advance; please answer with one of these: active, inactive

Qu. Called result for CCC(=O)CCCCC[C@@H]1NC(=O)[C@H]2CCCCN2C(=O)[C@H]([C@@H](C)CC)NC(=O)[C@H](Cc2cn(OC)c3ccccc23)NC1=O
Ans. active

Qu. # repeat for CCCCC[C@@H]1OC(=O)[C@@H](C)N(C)C(=O)[C@H](CCCCC)OC(=O)C(C)N(C)C(=O)[C@H](CCCCC)OC(=O)[C@@H](C)N(C)C(=O)[C@H](CCCCC)OC(=O)C(C)N(C)C1=O (stereo not given in full)
Ans. active

Qu. # repeat for CNCCc1ccccc1
Ans. inactive

Qu. # repeat for CCCC[C@@H]1CC[C@H]2CCCC(CCC)N12 (stereo not given in full)
Ans. inactive

Qu. # repeat for C/C=C1/CN2CC[C@]34C(=Nc5ccccc53)[C@@H]2C[C@@H]1[C@H]4C(=O)OC
Ans. inactive

Qu. # repeat for c1ccc2c3c([nH]c2c1)CNCC3
Ans. inactive

Qu. # repeat for O=C(c1ccccc1O)c1[nH]c(Cl)c(Cl)c1-n1c(C(=O)c2ccccc2O)cc(Cl)c1Cl
Ans. active

Qu. # repeat for CC(=O)N[C@H]1CCN2CCC[C@H]12
Ans. inactive

Qu. # repeat for CNCCc1ccc(O)cc1
Ans. inactive

Qu. # repeat for C[C@]12CC(O)C3[C@@H](CCC4C[C@@H](O)CC[C@@]43CO)[C@@]1(O)CCC2C1=CC(=O)OC1 (stereo not given in full)
Ans. inactive

###

Test: qHTS for Inhibitors of the Functional Ribonucleoprotein Complex (vRNP) of Lassa (LASV) Arenavirus: LASV Primary Screen - GLuc reporter signal (AID 1347082); also: nearly all actives have a fitted effect of over 60% in size
Settings: LASV minigenome vRNP, Gaussia luciferase reporter; series mostly up to 57.5 µM
Inconclusive results are not listed. Activity calls are given as the source filed them. Calls follow the shape of the full dose curve; tested in HEK293 reporter line.
Thanks in advance; please answer with one of these: active, inactive

Qu. Called result for CC(C)NC[C@@H](C(=O)N1CCN(c2ncnc3c2[C@H](C)C[C@H]3O)CC1)c1ccc(Cl)cc1
Ans. active

Qu. # repeat for O=C(O)C1=CO[C@@H](O[C@@H]2O[C@H](CO)[C@H](O)[C@H](O)[C@H]2O)[C@@H]2C(CO)=CC[C@H]12
Ans. inactive

Qu. # repeat for CN1CCc2c(n(Cc3ccc(C(=O)NO)cc3)c3ccccc23)C1
Ans. inactive

Qu. # repeat for COc1ccc(Cc2ccc(NC(N)=O)cc2)cc1-c1cccc(Cl)c1
Ans. inactive

Qu. # repeat for Nc1ncnc2c1c(-c1cccc(OCc3ccccc3)c1)cn2C1CC(CN2CCCC2)C1 (stereo not given)
Ans. inactive

###

Assay: qHTS for Inhibitors of the Functional Ribonucleoprotein Complex (vRNP) of Lassa (LASV) Arenavirus: LASV Primary Screen - GLuc reporter signal (AID 1347082); also: nearly all actives have a fitted effect of over 60% in size
Conditions: LASV minigenome vRNP, Gaussia luciferase reporter; series mostly up to 57.5 µM
Inconclusive results are not listed. Calls of active or inactive are those of the source. The call rests on the fitted dose curve; tested in HEK293 reporter line.
Thanks in advance; please answer with one of these: label 1 (active), label 0 (inactive)

Qu. Called result for CC(=O)[C@]1(O)Cc2c(O)c3c(c(O)c2[C@@H](O[C@H]2C[C@H](N)[C@@H](O)[C@H](C)O2)C1)C(=O)c1ccccc1C3=O
Ans. label 1

Qu. # repeat for COc1cccc(-c2cc(=O)c3ccccc3o2)c1N
Ans. label 0

Qu. # repeat for Cc1cc(O)c2c(c1)O[C@@]1(C)CC[C@H]3C(C)(C)CCCC34CO[C@@H]2[C@H]41 (stereo partly specified)
Ans. label 0

Qu. # repeat for CC1CCN(CC[C@H]2CCCN2S(=O)(=O)c2cccc(O)c2)CC1
Ans. label 0

Qu. # repeat for CCNc1cc(NC2CCC(O)CC2)nc(Nc2ccc3c(ccn3Cc3ccccc3)c2)n1 (stereo unspecified)
Ans. label 0

Qu. # repeat for O=C1CC(c2ccc(O[C@@H]3OC(CO)[C@@H](O)C(O)C3O)cc2)Oc2cc(O)ccc21 (stereo partly specified)
Ans. label 0

Qu. # repeat for Cc1ccc(NC(=O)Nc2cc(C(F)(F)F)ccc2F)cc1Nc1ccc2c(c1)NC(=O)C2=Cc1ccc[nH]1
Ans. label 1

Qu. # repeat for C#CCCCCCCCCCCCc1ccco1
Ans. label 0

Qu. # repeat for CCCCCCC(CO)CCCC (stereo unspecified)
Ans. label 0

Qu. # repeat for CC(C)C1C(=O)O[C@@H]2CCN3CC=C(COC(=O)[C@](C)(O)[C@]1(C)O)[C@H]23 (stereo partly specified)
Ans. label 0

Qu. # repeat for CC1NC(C(=O)O)Cc2c1[nH]c1ccccc21 (stereo unspecified)
Ans. label 0

Qu. # repeat for Cc1ccc(C(=O)O[C@H](C(=O)O)[C@@H](OC(=O)c2ccc(C)cc2)C(=O)O)cc1 (tested in a mixture with another compound)
Ans. label 0

Qu. # repeat for O=C(OCCc1ccccc1)c1ccccc1
Ans. label 0

Qu. # repeat for N[C@@H](Cc1cnc[nH]1)C(=O)O
Ans. label 0

Qu. # repeat for CC(=O)OCCC(C)C
Ans. label 0

Qu. # repeat for CCCCCCCCCCCCCCCC(=O)O[C@H]1[C@@H](O)[C@@H](O)[C@@H]([C@H](NC(=O)[C@@H]2C[C@@H](CCC)CN2C)[C@H](C)Cl)O[C@@H]1SC
Ans. label 0

Qu. # repeat for C/C=C/C=C/CCCCCCCO
Ans. label 0

Qu. # repeat for CCCCCCCCCCCCCCCC(=O)OC(CC(=O)O)C[N+](C)(C)C (stereo unspecified)
Ans. label 0

Qu. # repeat for CC(C)C1Oc2cc3oc(=O)ccc3cc2C1=O (stereo unspecified)
Ans. label 0

Qu. # repeat for CC(=O)OC(C)c1ccccc1 (stereo unspecified)
Ans. label 0

Qu. # repeat for C=CCNc1c(O)cc2c(O)c1C[C@@H](C)C[C@H](OC)[C@@H](O)[C@@H](C)C=C(C)[C@H](OC(N)=O)[C@@H](OC)C=CC=C(C)C(=O)N2
Ans. label 1
